Listing of recorded inhibition by entry.
# Target Of Assay: Aβ 1-42 fibrils (Homo sapiens, UniProt P05067)
# Construct: purchased Bachem Inc
# Sequence (P05067 672-713): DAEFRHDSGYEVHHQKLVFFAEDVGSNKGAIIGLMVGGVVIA
# Assay Method Text: Thioflavin T fluorometry - disruption of pre-formed Aβ 1-42 Alzheimer's fibrils
# Type: biochemical
# Measurement Setup: Aβ:test compound wt/wt ratio 1:0.01; 25 μM pre-fibrillized Aβ 1-42, 37° C., 3 days; read-out: % Inhibition Aβ (result ± S.D.)
Report the figure in % without appending any unit label.

Use the examples below as a reference point.
O=C(CCc1ccc(O)c(O)c1)NCc1ccc(O)c(O)c1: 33.2
Cc1nc(-c2ccc(O)c(O)c2)cc(-c2ccc(O)c(O)c2)c1C#N: 24.7

Query string: Tell me the measured inhibition of Oc1ccc(CN[C@@H]2CCCC[C@H]2NCc2ccc(O)c(O)c2)cc1O (relative stereo) , please.
Result string: 10.8

----------
# Target Of Assay: IAPP fibrils (Homo sapiens, UniProt P10997)
# Construct: purchased Bachem Inc
# Sequence (P10997 34-70 limits assumed): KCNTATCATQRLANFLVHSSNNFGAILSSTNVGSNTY
# Assay Method Text: Congo red binding assay with IAPP fibrils
# Type: biochemical
# Measurement Setup: IAPP:test compound wt/wt ratio 1:0.1; 3-day incubation
Measured Metric: % Inhibition IAPP (result ± S.D.), Congo red binding
Could you give the number and then its unit, please?

O=C(Nc1ccc(O)c(O)c1)C(=O)Nc1ccc(O)c(O)c1 [Compound 63, oxalic acid bis(3,4-dihydroxyanilide)]: 4.5 ± 1.62%
Oc1ccc(CN[C@@H]2CCCC[C@H]2NCc2ccc(O)c(O)c2)cc1O (relative stereo) [Compound 12]: 8.3 ± 0.85%

Query string: Query: % Inhibition IAPP (result ± S.D.), Congo red binding; subject: Oc1ccc(CN(Cc2ccc(O)c(O)c2)Cc2ccc(O)c(O)c2)cc1O [Compound 75, tris(3,4-dihydroxybenzyl)amine]
Result string: 7.4 ± 0.70%

Query string: # % Inhibition IAPP (result ± S.D.), Congo red binding lookup, item O=C(CCC(=O)Nc1ccc(O)c(O)c1)Nc1ccc(O)c(O)c1 [Compound 66, succinic acid bis(3,4-dihydroxyanilide)]
Result string: 15.7 ± 2.53%

Query string: Which % Inhibition IAPP (result ± S.D.), Congo red binding is reported for this compound? O=C(CCc1ccc(O)c(O)c1)NCc1ccc(O)c(O)c1 [Compound 58]
Result string: 0.7 ± 6.21%

Query string: Which % Inhibition IAPP (result ± S.D.), Congo red binding value belongs to O=C(CCc1ccc(O)c(O)c1)Nc1ccc(O)c(O)c1 [Compound 57] ?
Result string: 8.9 ± 3.90%

Query string: # get_value(readout='% Inhibition IAPP (result ± S.D.), Congo red binding', item= O=C(NCc1ccc(O)c(O)c1)c1ccc(O)c(O)c1 [Compound 52] )
Result string: 11.5 ± 1.21%

Query string: Data request, read-out % Inhibition IAPP (result ± S.D.), Congo red binding, for O=C(O)CN(CCN(CC(=O)O)CC(=O)O)CC(=O)O [EDTA, reference compound]
Result string: 0.0 ± 1.91%

----------
# Target Of Assay: Aβ 1-42 fibrils (Homo sapiens, UniProt P05067)
# Construct: purchased Bachem Inc
# Assay Method Text: Thioflavin T fluorometry - disruption of pre-formed Aβ 1-42 Alzheimer's fibrils
# Type: biochemical
# Measurement Setup: Aβ:test compound wt/wt ratio 1:0.1; 25 μM pre-fibrillized Aβ 1-42, 37° C., 3 days; read-out: % Inhibition Aβ (result ± S.D.)
Property: inhibition; scope: individual compounds
Output spec: scalar in %, unitless text.

Here's what some known entries look like.
O=C(N[C@@H]1CCCC[C@H]1NC(=O)c1ccc(O)c(O)c1)c1ccc(O)c(O)c1 (relative stereo): 11.7
O=C(Nc1ccc(O)c(O)c1)c1ccc(O)c(O)c1: 94.9
Cc1nc(-c2ccc(O)c(O)c2)cc(-c2ccc(O)c(O)c2)c1C#N: 65.5

Now examine the next entry.
Query string: I am curious: what inhibition value has been reported for Oc1ccc(CN[C@@H]2CCCC[C@H]2NCc2ccc(O)c(O)c2)cc1O (relative stereo) ?
Result string: 82

----------
Catalogue of inhibition readings, one per entry.
# Target Of Assay: NAC fibrils (Homo sapiens, UniProt P37840)
# Construct: NAC is a 35-amino acid fragment of α-synuclein; purchased Bachem Inc
# Assay Method Text: Thioflavin T fluorometry - disruption of Parkinson's disease NAC fibrils
# Format: biochemical
# Measurement Setup: NAC:test compound wt/wt ratio 1:0.1; 25 μM pre-fibrillized NAC, 37° C., 3 days; read-out: % Inhibition NAC (result ± S.D.)
The figure you give is taken to be in %; do not add the unit.

Query string: Which inhibition is reported for this compound? O=C(CCC(=O)Nc1ccc(O)c(O)c1)Nc1ccc(O)c(O)c1 [Compound 66, succinic acid bis(3,4-dihydroxyanilide)]
Result string: 82.5

Query string: Data request, read-out inhibition, for O=C(NCc1ccc(O)c(O)c1)c1ccc(O)c(O)c1
Result string: 89.2

Query string: What value of measured inhibition is listed for O=C(N[C@@H]1CCCC[C@H]1NC(=O)c1ccc(O)c(O)c1)c1ccc(O)c(O)c1 (relative stereo) ?
Result string: 61.3

Query string: Can you look up the measured inhibition of O=C(c1ccc(O)c(O)c1)C(O)c1ccc(O)c(O)c1 (centres unmarked) [Compound 1, 3,4,3′,4′-tetrahydroxybenzoin] for me?
Result string: 99.5

Query string: Name the reported inhibition value associated with the compound O=C(CCC(=O)NCc1ccc(O)c(O)c1)NCc1ccc(O)c(O)c1
Result string: 50

----------
Measured % Inhibition NAC (result ± S.D.), Congo red binding, listed per entry.
# Target Of Assay: NAC fibrils (Homo sapiens, UniProt P37840)
# Construct: NAC is a 35-amino acid fragment of α-synuclein; purchased Bachem Inc
# Assay Method Text: Congo red binding assay with NAC fibrils
# Assay type: biochemical
# Measurement Setup: NAC:test compound wt/wt ratio 1:1; 3-day incubation
Reply with a number, then the unit it belongs to.

// worked examples, % Inhibition NAC (result ± S.D.), Congo red binding included
O=C(O)CN(CCN(CC(=O)O)CC(=O)O)CC(=O)O [EDTA, reference compound]: 0.2 ± 7.33%
O=C(N[C@@H]1CCCC[C@H]1NC(=O)c1ccc(O)c(O)c1)c1ccc(O)c(O)c1 (relative stereo): 34.4 ± 10.19%
O=C(c1ccc(O)c(O)c1)C(O)c1ccc(O)c(O)c1 (centres unmarked) [Compound 1, 3,4,3′,4′-tetrahydroxybenzoin]: 75.4 ± 2.96%
O=C(CCC(=O)NCc1ccc(O)c(O)c1)NCc1ccc(O)c(O)c1: 81.2 ± 2.87%

Now, please, on to the next compound.
Query string: Quick one: % Inhibition NAC (result ± S.D.), Congo red binding of Oc1ccc(Cc2ccc(O)c(O)c2)cc1O [Compound 3, 3,4,3′,4′-tetrahydroxydiphenylmethane] ?
Result string: 94.4±2.48%

----------
# Target Of Assay: IAPP fibrils (Homo sapiens)
# Construct: purchased Bachem Inc
# Assay Method Text: Congo red binding assay with IAPP fibrils
# Type: biochemical
# Measurement Setup: IAPP:test compound wt/wt ratio 1:1; 3-day incubation
Measured Metric: % Inhibition IAPP (result ± S.D.), Congo red binding (%)
Answer in %, number only, no unit symbol.

Solved cases below.
O=C(Nc1ccc(O)c(O)c1)C(=O)Nc1ccc(O)c(O)c1 [Compound 63, oxalic acid bis(3,4-dihydroxyanilide)]: 15.4
Oc1ccc(Cc2ccc(O)c(O)c2)cc1O [Compound 3, 3,4,3′,4′-tetrahydroxydiphenylmethane]: 55.5

// moving on: another record for % Inhibition IAPP (result ± S.D.), Congo red binding
Query string: Any idea what % Inhibition IAPP (result ± S.D.), Congo red binding was measured for Oc1ccc(CCc2ccc(O)c(O)c2)cc1O [Compound 4, 1,2-bis(3,4-dihydroxyphenyl)ethane] ?
Result string: 68.9
